Test system: Leishmania donovani
Test: Antileishmanial activity against Leishmania donovani MHOM/SD/00/1S-2D promastigotes assessed as parasite death at 10 uM after 72 hrs
Type: functional
Hi there, I'd appreciate the recorded Activity for every entry that follows.
Field format: number, assumed %, no unit text.

Fill in the blank: the reported Activity of CCCN(CCCCNc1c2ccc(Cl)cc2nc2ccc(OC)cc12)CCCNc1c2ccc(Cl)cc2nc2ccc(OC)cc12 is ____. 99

# input compound: COc1ccc2nc3cc(Cl)ccc3c(NCCCCNCCCNc3c4ccc(Cl)cc4nc4ccc(OC)nc34)c2n1 ; wanted: its Activity 99

Fill blank: measured Activity of the compound COc1ccc2nc3cc(Cl)ccc3c(NCCCCNCCCNc3c4ccc(Cl)cc4nc4ccc(OC)cc34)c2c1 is ____. 96

Param item = COc1ccc2nc3cc(Cl)ccc3c(NCCCN3CCN(CCCNc4c5ccc(Cl)cc5nc5ccc(OC)cc45)CC3)c2c1 ; retrieve measured Activity. 46

====

System: Trichomonas vaginalis
Experiment: Antimicrobial activity against Trichomonas vaginalis G3 assessed as parasite death at 10 uM after 24 hrs
Format: functional
I'd appreciate it if you could supply Activity values for the items below.
# output: bare number, implied unit %

Any idea what Activity was measured for COc1ccc2nc3cc(Cl)ccc3c(NCCNCCCNCCNc3c4ccc(Cl)cc4nc4ccc(OC)cc34)c2c1 ? 75

// returns reported Activity for input COc1ccc2nc3cc(Cl)ccc3c(NCCCN(C)CCCNc3c4ccc(Cl)cc4nc4ccc(OC)cc34)c2c1 92

Consider the compound shown here: COc1ccc2nc3cc(Cl)ccc3c(NCCCCN(CCCNc3c4ccc(Cl)cc4nc4ccc(OC)cc34)C(=O)CNC(=O)[C@H](C)N)c2c1 What is its recorded Activity? 0

Tell me the measured Activity of COc1ccc2nc3cc(Cl)ccc3c(NCCOCCOCCNc3c4ccc(Cl)cc4nc4ccc(OC)cc34)c2c1 , please. 75

Any idea what its Activity is? The compound is COc1ccc2nc3cc(Cl)ccc3c(NCCCCCCCCNc3c4ccc(Cl)cc4nc4ccc(OC)nc34)c2n1 59

Quick check: Activity of COc1ccc2nc3cc(Cl)ccc3c(NCCCCCCCCCCNc3c4ccc(Cl)cc4nc4ccc(OC)cc34)c2c1 ? 100

Please give the measured Activity for this compound: COc1ccc2nc3cc(Cl)ccc3c(NCCCN3CCN(CCCNc4c5ccc(Cl)cc5nc5ccc(OC)cc45)CC3)c2c1 10

Entry CCCN(CCCCNc1c2ccc(Cl)cc2nc2ccc(OC)cc12)CCCNc1c2ccc(Cl)cc2nc2ccc(OC)cc12 : reported Activity = ? 90

// returns reported Activity for input COc1ccc2nc3cc(Cl)ccc3c(NCCCCNCCCCCNCCCNc3c4ccc(Cl)cc4nc4ccc(OC)cc34)c2c1 66

====

Give MCC for every item shown.
Test: Cytotoxicity against human HL60 cells
Assay type: cell-based, HL-60
Conditions: human, HL-60 cells; read-out: MIC
Write the answer as a number in µM, unit excluded.

Any idea what MCC was measured for COc1ccc2nc3cc(Cl)ccc3c(NCCCCCCCCNc3c4ccc(Cl)cc4nc4ccc(OC)cc34)c2c1 ? 10

Tell me the measured MCC of COc1ccc2nc3cc(Cl)ccc3c(NCCNCCCNCCNc3c4ccc(Cl)cc4nc4ccc(OC)cc34)c2c1 , please. 1

MCC for COc1ccc2nc3cc(Cl)ccc3c(NCCOCCOCCNc3c4ccc(Cl)cc4nc4ccc(OC)cc34)c2c1 ? 10

Using the record for COc1ccc2nc3cc(Cl)ccc3c(NCCCCN(CCCNc3c4ccc(Cl)cc4nc4ccc(OC)cc34)C(=O)[C@H](C)NC(=O)OC(C)(C)C)c2c1 , report its MCC. 10

Reference source: ChEMBL document CHEMBL1143811
